test system: SR leukemia; assay: NCI-60 one-dose screen, 48 h (100 = growth as untreated, 0 = no growth, -100 = all killed); details: 10 µM unless noted
The panel holds about 83,000 compounds, 20% with a hit somewhere; the sample as a whole holds those more often.
growth: recorded values
Observation Type: growth (%)

> print(dat)
                                    compound  measured.number
 1  C=CC(=O)OC1CCC(C(C)(C)CC)CC1 (stereo not given)             98.9
 2  Cc1[nH]n(-c2ccccc2)c(=O)c1C=NC(=S)C(N)=S             89.9
 3  C/C(=N\Nc1ccc([N+](=O)[O-])cc1[N+](=O)[O-])c1ccc(Br)cc1             84.4
 4             Nc1ccc2c(c1)Cc1cc(N)c(N)cc1-2             82.2
 5  COc1cc(OC)c2cc(C(=O)c3ccc(C#N)cc3)c(=O)oc2c1             89.8
 6  C/C(O)=C(/C=N/C(=S)Nc1ccccc1)C(=O)Nc1ccccc1C             91.7
 7  CC1CCC(C)(C)c2ccccc21 (stereo not given)              107
 8                    Cc1ccc[n+](CCC(N)=O)c1             59.8
 9           COc1cc(C(=O)O)c(O)c(C(C)(C)C)c1              119
10  N#CCCN1C(=O)CCC1C(=O)O (stereo not given)             92.9
11                          O=C1CSc2ccccc2N1              105
12           CS(=O)(=O)c1ccc(/C=C\C(=O)O)cc1             62.3
13  CC(=O)OC/C(C)=C\CC(C)COC(C)=O (stereo not given)               83
14  O=C1NC(=O)C(c2ccccc2)O1 (stereo not given)             93.3
15  COc1ccc(C(=O)/C(=N/Nc2ccccc2)c2ccc(OC)cc2)cc1               86
16                                NNc1ncccn1             98.2
17    CC(C)C1CCC(C)C(O)C1 (stereo not given)             96.1
18                              CCOC(C=O)OCC             89.9
19  O=S(=O)(c1ccc(NC(=S)NCc2cccnc2)cc1)N1CCCCC1             49.1
20  CCCCCCCCCCCCCCCCCC(=O)NCCNC(=O)CCCCCCCCCCCCCCCCC            0.967
21  COC1(OC)C2(Cl)C(Cl)=C(Cl)C1(Cl)C1COCC12 (stereo not given)             89.9
22       CC1(c2ccccc2)CO1 (stereo not given)              104
23                        CC(=O)c1cc(O)ccc1O             94.2
24      C=C1C(=O)C2CCC1C2 (stereo not given)             96.7
25       CC1=CC(=Nc2ccc(N(C)C)cc2)C=C(C)C1=O             88.1
26  COC1OC(COC(C)=O)C(OC(C)=O)C(OC(C)=O)C1OC(C)=O (stereo not given)             95.5
27      CCC(C)C1CCC(O)CC1 (stereo not given)             93.7
28                       O=Cc1ccc(Cl)c(Cl)c1               98
29                 O=[n+]1ccn([O-])c2ccccc21             78.3
30  CC(=O)NNC(=S)/N=C\C(C(=O)c1ccccc1)=C(/O)c1ccccc1              102
31    CC1CC(C)S(=O)(=O)C1 (stereo not given)             97.9
32  Nc1ccccc1SC1CC(=O)N(c2ccc(Cl)c(Cl)c2)C1=O (stereo not given)             91.1
33           C[n+]1cc2cc3c(cc2c2ccccc21)OCO3             15.6
34  O=C(O)C1CSC(c2ccccc2)N1 (stereo not given)              115
35                           CCCC(=O)c1cccs1             95.8
36   NCC(O)C(O)C(O)C(O)CO (stereo not given)             96.6
37  CC(C)(C)[Si](C)(C)OCC1OC(n2cnc3c(N)ncnc32)CC1OS(C)(=O)=O (stereo not given)              107
38                         O=Cc1ccc(O)c(O)c1             82.9
39          COc1cc(CC#N)c([N+](=O)[O-])cc1OC             91.2
40  COc1ccc(C2CCCCC2=O)cc1 (stereo not given)              103
41  CC(=O)O[C@H]1CC[C@]2(C)C3=C(C(=O)C[C@H]2C1(C)C)[C@]1(C)CC[C@H]([C@H](C)CCC(=O)O)[C@@]1(C)CC3=O             82.6
42               O=C1NC(=O)/C(=C\c2ccncc2)N1             92.2
43  CC(O)C(F)(F)C(F)(F)C(F)(F)F (stereo not given)             97.6
44          CCOC(=O)/C(C)=C\c1ccc(OC)c(OC)c1             86.5
45           O=C(O)c1ccccc1Cc1ccc2c(c1)CCCC2              106
46                       O=C(O)Cc1ccc(Cl)cc1             44.8
47  N=C(N)c1nn(C2OC(CO)C(O)C2O)c2nc[nH]c(=O)c12 (stereo not given)            -22.7
48                         CC(=O)c1cccc(O)c1             90.6
49                    CCC(=O)Oc1ccc2ccccc2c1              106
50   O=c1nc(Nc2cccc(Cl)c2)oc2cc(Cl)oc(=O)c12             2.45
51                        NC(CO)(CO)c1ccccc1             96.7
52  CC(=O)NNC(=S)N/C=C/c1c(C)ccc([N+](=O)[O-])c1[N+](=O)[O-]             92.9
53                     CCN(CC)CCN1CNC(=S)NC1             96.4
54                O=C(O)c1ccc(OCc2ccccc2)cc1             99.8
55            OC(CBr)CCBr (stereo not given)             78.3
